List of log10 of IC50 values.
Tested on: c-kit (Homo sapiens, UniProt P10721)
Construct: MO7e (human megakaryocytic leukemia cell line) which had been arrested for 20 hr; endogenous in cells; host or cells: MO7e human megakaryocytic leukemia cell line
Sequence (P10721 26-976): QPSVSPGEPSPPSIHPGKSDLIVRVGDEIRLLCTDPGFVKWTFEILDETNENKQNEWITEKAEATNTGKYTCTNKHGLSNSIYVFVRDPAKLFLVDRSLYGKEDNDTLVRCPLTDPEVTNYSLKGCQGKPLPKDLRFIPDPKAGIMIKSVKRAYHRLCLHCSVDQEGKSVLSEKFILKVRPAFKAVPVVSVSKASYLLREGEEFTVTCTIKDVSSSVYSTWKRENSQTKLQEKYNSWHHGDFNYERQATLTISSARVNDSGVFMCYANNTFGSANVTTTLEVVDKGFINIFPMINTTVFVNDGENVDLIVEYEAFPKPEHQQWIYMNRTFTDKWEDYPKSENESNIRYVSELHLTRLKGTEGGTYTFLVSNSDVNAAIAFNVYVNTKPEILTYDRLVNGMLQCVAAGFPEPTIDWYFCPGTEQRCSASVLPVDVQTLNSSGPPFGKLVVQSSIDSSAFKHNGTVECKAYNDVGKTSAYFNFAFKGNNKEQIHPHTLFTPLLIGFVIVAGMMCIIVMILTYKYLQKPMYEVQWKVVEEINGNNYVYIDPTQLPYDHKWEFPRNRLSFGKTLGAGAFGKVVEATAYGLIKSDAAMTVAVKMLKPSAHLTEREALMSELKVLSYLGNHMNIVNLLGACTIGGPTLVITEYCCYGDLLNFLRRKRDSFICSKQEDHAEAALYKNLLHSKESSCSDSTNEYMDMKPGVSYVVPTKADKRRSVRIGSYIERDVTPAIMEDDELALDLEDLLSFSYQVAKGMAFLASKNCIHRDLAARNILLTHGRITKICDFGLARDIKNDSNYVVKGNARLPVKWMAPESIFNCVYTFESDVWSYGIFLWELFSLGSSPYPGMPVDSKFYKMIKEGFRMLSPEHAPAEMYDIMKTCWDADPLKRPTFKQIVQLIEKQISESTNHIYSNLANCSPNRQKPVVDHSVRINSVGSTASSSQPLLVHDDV
Method notes: Inhibitory activity against c-kit autophosphorylation (MO7e cells, h-SCF)
Type: cell-based
Assay context: MO7e cells, h-SCF 50 ng/ml; read-out: c-kit IC50
Remember, log10 of IC50, in nM.

// below: answered molecules
{"columns": ["Molecule", "Tested on", "Assay readout", "Endpoint result"],
 "data": [
  ["COc1cc2nccc(Oc3ccc(NC(=O)OCc4cccc(C)c4)c(C)c3C)c2cc1OC", "c-kit (Homo sapiens, UniProt P10721)", "log10 of IC50", 1.72],
  ["COc1cc2ncnc(Oc3ccc(NC(=O)OCc4ccc(C)cc4)cc3)c2cc1OC", "c-kit (Homo sapiens, UniProt P10721)", "log10 of IC50", 1.72],
  ["COc1cc2nccc(Oc3cc(C)c(NC(=O)OCc4ccccc4C)cc3C)c2cc1OC [Example 253]", "c-kit (Homo sapiens, UniProt P10721)", "log10 of IC50", 2.71]
]}

Value of log10 of IC50 reported for the molecule COc1cccc(OCCCOC(=O)Nc2ccc(Oc3ccnc4cc(OC)c(OC)cc34)cc2)c1 is 2.25

Value of log10 of IC50 reported for the molecule COc1cc2ncnc(Oc3cc(C)c(NC(=O)OC4CCCCC4)cc3C)c2cc1OC is 2.60

Value of log10 of IC50 reported for the molecule COc1cc2nccc(Oc3ccc(NC(=O)OC(C)c4cccc(C(F)(F)F)c4)cc3)c2cc1OC (stereo not drawn) is 2.78

Value of log10 of IC50 reported for the molecule COc1cccc(C(C)OC(=O)Nc2ccc(Oc3ccnc4cc(OC)c(OC)cc34)c(C)c2C)c1 (stereo not drawn) is 2.68

Value of log10 of IC50 reported for the molecule CCC(CC)OC(=O)Nc1ccc(Oc2ccnc3cc(OC)c(OC)cc23)c(C)c1C is 2.28

Value of log10 of IC50 reported for the molecule CCCC(CCC)OC(=O)Nc1cc(C)c(Oc2ccnc3cc(OC)c(OC)cc23)cc1C is 2.85

Value of log10 of IC50 reported for the molecule COc1cc2ncnc(Oc3ccc(NC(=O)OCCOc4ccccc4F)cc3)c2cc1OC is 1.90

Value of log10 of IC50 reported for the molecule COc1cc2nccc(Oc3ccc(NC(=O)OCC4CCCCC4)c(C)c3C)c2cc1OC is 1.93
